Cited source: the NIST ThermoML archive (doi:10.1016/j.jct.2016.12.032)

For each entry below, report its speed of sound value.
conditions: 318.15 K; 100 kPa; Liquid; Frequency=3 MHz; Sing-around technique in a fixed-path interferometer
Write the value in m/s as a bare number.

Req: Would you kindly share the measured speed of sound for CC1CC(=O)O1 (centres undefined) ?
Resp: 1281.1

Req: Same again, this time with CC1CCC(=O)O1 (centres undefined)
Resp: 1358.4

Req: Note, next up: `O=C1CCCCCO1`
Resp: 1472.7

Req: Follow-up item: `O=C1CCCCO1`
Resp: 1498.6

###

Exercise: state measured mass density for each of the compounds provided.
conditions: 293.15 K; 100 kPa; Liquid; Vibrating tube method
I only need the number, in kg/m3, no unit after it.

Req: Which mass density is listed for CC1CC(=O)O1 (stereo not given) [4-methyl-2-oxetanone] ?
Resp: 1055.93

Req: What do you get for O=C1CCCCCO1 [6-hexanolactone] ?
Resp: 1075.92

Req: What do you have for CC1CCC(=O)O1 (stereo not given) [γ-valerolactone] ?
Resp: 1053.99

Req: Try the compound `CCCC[n+]1ccn(C)c1.O=S(=O)([N-]S(=O)(=O)C(F)(F)F)C(F)(F)F`
Resp: 1441.61

Req: // query: O=C1CCCCO1 [1-oxacyclohexan-2-one]
Resp: 1108.53

###

conditions: 318.15 K; 100 kPa; Liquid; Capillary tube (Ostwald / Ubbelohde) method
parameter: viscosity (mPa·s)
Numbers only here, please. The scale is mPa·s.

Req: Give the measured viscosity of CC1CC(=O)O1 (centres undefined) .
Resp: 1.25

Req: Check `O=C1CCCCO1` too.
Resp: 2.25

Req: Same question for CC1CCC(=O)O1 (centres undefined) please.
Resp: 1.32

Req: What do you have for `O=C1CCCCCO1` ?
Resp: 3.53

###

settings: 313.15 K; 100 kPa; Liquid; Capillary tube (Ostwald / Ubbelohde) method
Give viscosity for every item shown.
Give the value in mPa·s but do not write mPa·s after it.

Req: Looking for the measured viscosity of O=C1CCCCO1 [1-oxacyclohexan-2-one] , can you help?
Resp: 2.47

Req: One more compound: CC1CC(=O)O1 (centres undefined) [4-methyl-2-oxetanone]
Resp: 1.33

Req: CC1CCC(=O)O1 (centres undefined) [γ-valerolactone] , same question.
Resp: 1.42

Req: Try this compound next: O=C1CCCCCO1 [6-hexanolactone]
Resp: 3.95

###

details: 313.15 K; 100 kPa; Liquid; Vibrating tube method
parameter: mass density (kg/m3)
Give the value, in units of kg/m3, as a plain number.

Req: Item under review: `O=C1CCCCO1` . Reported mass density?
Resp: 1090.27

Req: Consider next the molecule CC1CC(=O)O1 (stereo not given) in the same way.
Resp: 1034.33

Req: Here is the next molecule: `O=C1CCCCCO1`
Resp: 1058.9

Req: Continue with `CCCC[n+]1ccn(C)c1.O=S(=O)([N-]S(=O)(=O)C(F)(F)F)C(F)(F)F`
Resp: 1421.58

Req: Could you do the same for CC1CCC(=O)O1 (stereo not given) , please?
Resp: 1035.16

###

conditions: 298.15 K; 100 kPa; Liquid; Vibrating tube method
parameter: mass density (kg/m3)
// return numeric value only (unit: kg/m3, not printed)

Req: Item under review: CC1CC(=O)O1 (stereo not given) [4-methyl-2-oxetanone] . Reported mass density?
Resp: 1050.68

Req: For O=C1CCCCCO1 [6-hexanolactone] then?
Resp: 1071.67

Req: And the next one, CC1CCC(=O)O1 (stereo not given) [γ-valerolactone] ?
Resp: 1049.28

Req: What about this molecule? O=C1CCCCO1 [1-oxacyclohexan-2-one]
Resp: 1103.96

Req: Try this molecule next: `CCCC[n+]1ccn(C)c1.O=S(=O)([N-]S(=O)(=O)C(F)(F)F)C(F)(F)F`
Resp: 1436.67
